Would you kindly list inhibition for each of these molecules?
# experimentalDetails: inhibitors of PAF-induced NFkB signaling in CF airway cells, dose response, cell-based, uHTS hits, panel, cytotoxicity readout (AID 624344)
# recordedConditions: CF bronchial epithelial cells, PAF-induced NFkB reporter inhibition, with PAF, run 2; at 79 µM (top of the series) unless noted
Give bare numbers, in %.

Sample records with inhibition:
COc1ccc(-c2cn[nH]c2-c2ccc(OC)cc2O)cc1: 112
CC(=O)Oc1ccc(N(C(C)=O)S(=O)(=O)c2cccs2)c2ccccc12: 62.6
Nc1ncnc2c1c(-c1ccc(Oc3ccccc3)cc1)cn2C1CCCC1: 94.1
CCOc1cc2c(cc1O)C(=NOC)CC1C2CCC2(C)C(O)CCC12 (stereo not drawn): 94.3
Clc1ccc(Cn2ncc3c(N4CCN(c5ccccc5)CC4)ncnc32)cc1: 94.9
Cc1cccc(NC(=O)c2nc(S(=O)(=O)Cc3ccccc3)ncc2Cl)c1: 95.1
CC(C)=CCc1c(O)cc(O)c2c1OC(c1ccc(O)cc1)CC2=O (stereo not drawn): 108
Cc1ccc(CCC(=O)Nc2ncc(Cc3cccc(Cl)c3Cl)s2)o1: 112
c1nc(NCc2ccc3c(c2)OCO3)c2cc(-c3ccoc3)ccc2n1: 102
O=C(Nc1ccccc1N1CCOCC1)c1cc(-c2ccco2)nc2ccccc12: 95.6

Provide reported inhibition for each item, in the same order as listed.
1. CCN1CCN(Cc2ccc(NC(=O)c3ccc(C)c(NC(=O)c4csc(-c5ccncc5)n4)c3)cc2C(F)(F)F)CC1
2. COc1ccc(COc2cc(-c3cccc(OC)c3)nc3ccc(NC(=O)c4cccnc4)cc23)cc1
3. c1cc(-c2nnc3sc(C4CCCCC4)nn23)ccn1
4. COc1ccc(-c2ccccc2[C@H]2[C@@H]3C=CC[C@@H](C)[C@@H]3C(=O)N2Cc2ccccc2)cc1
5. CC(C)[C@H](CO)Nc1nc(NCc2ccc(S(N)(=O)=O)cc2)c2ncn(C(C)C)c2n1
6. O=C(CN1C(=O)CCC1=O)Nc1nc(-c2nc3ccccc3s2)cs1
7. Cc1cccc(CS(=O)(=O)c2ncc(Cl)c(C(=O)NCc3ccccc3)n2)c1
8. Cc1nc([N+](=O)[O-])c(Sc2nc3ccc([N+](=O)[O-])cc3[nH]2)n1Cc1ccccc1

OUTPUT:
[101, 95.2, 109, 108, 110, 85.9, 88.2, 112]

I have 3 molecules here; please give me inhibition for each one.
1. CN(C)c1ccc(Nc2ncnc3ccc(Br)cc23)cc1
2. O=C(COC(=O)c1ccccc1C(=O)c1ccc(Cl)c([N+](=O)[O-])c1)NC1CCCCCC1
3. CC(C)C[C@H]1CNC(=S)N1C[C@H]1CCCN1C[C@H](Cc1ccccc1)N1C[C@H](Cc2ccc(O)cc2)N(CC2CCCCCC2)C1=S

OUTPUT:
1. 118
2. 99.7
3. 112

----------
# experimentalDetails: caspase-8 TRAIL sensitization, hit retest, confirmation, cell-based, NB7+caspase-8, with/without TRAIL, luminescence panel (AID 651596)
# recordedConditions: NB7 neuroblastoma + caspase-8, without TRAIL, luminescence viability, without TRAIL, mean of runs, at 10 µM
valueType: activity (%)
Numbers only, in %.

Worked cases, activity given:
NC(Cc1ccc(Cl)cc1)c1csc(NC(=O)NCC2CCCCC2)n1 (stereo not given): 88.1
C(=N\Nc1nncc2ccccc12)/c1ccccc1: 87.7
CCOC(=O)c1sc2nc(-c3ccccc3)ccc2c1N: 66.1
N/C(=N\OC(=O)c1ccccc1Cl)c1cccnc1: 70.6

Answer for every listed entry: what is its activity? The entries follow.
1. Cc1ccc(C(=O)Nc2ncc3c(Cl)cccc3n2)cc1
2. O=C(c1cnc(Cl)c(Cl)c1)N1CCN(S(=O)(=O)c2ccc3ccccc3c2)CC1
3. CC(NC(=O)Nc1nnc(C(F)(F)F)s1)(C(F)(F)F)C(F)(F)F
4. c1cc(-c2cc3cc(N4CCOCC4)ccc3o2)cs1
5. O=C(CN1C(=O)c2ccccc2S1(=O)=O)c1ccc2c(c1)OCCCO2

OUTPUT:
89
25.1
43.1
67.4
94.1

INPUT: Suppose we examine the molecule O=C(N/N=C\c1ccc(CNS(=O)(=O)c2ccc(Cl)cc2)o1)C(=O)Nc1ccc(Oc2ccccc2)cc1 ; what activity value has been reported?
OUTPUT: 91.1
